system: PC-3 prostate; test: NCI tumour cell line growth inhibition, 48 h
Recorded measurements of TGI, one per entry
Give the value, in units of µM, as a plain number.

A selection of reference data follows.
{"structure": "COc1ccc(-c2nn(-c3cccc(Cl)c3)cc2-c2cc(-c3ccccc3)[nH]c(=O)c2C#N)cc1", "target or test system": "PC-3 prostate", "property": "TGI", "experimental result": 41.6}
{"structure": "NCCCN1CCN(CCCNc2ccc3nnn4c5ccccc5c(=O)c2c34)CC1", "target or test system": "PC-3 prostate", "property": "TGI", "experimental result": 35.5}
{"structure": "CCOC(=O)c1nc2ccc(C(F)(F)F)cc2nc1Oc1ccc(C#N)cc1", "target or test system": "PC-3 prostate", "property": "TGI", "experimental result": 36}

Enquiry: Fill in: TGI of COC(=O)CN1c2nc(C#N)c(C#N)nc2N(CC(=O)OC)c2nc(C#N)c(C#N)nc21 is ___
Return: 18.4
